# SUBJECT OF TEST: GST-FAK (N-terminal GST fusion with truncated human FAK (376-1052 (end) amino acids)) (Homo sapiens)
# Construct: truncated human FAK (376-1052 (end) amino acids)
# Sequence (Q05397 376-1052): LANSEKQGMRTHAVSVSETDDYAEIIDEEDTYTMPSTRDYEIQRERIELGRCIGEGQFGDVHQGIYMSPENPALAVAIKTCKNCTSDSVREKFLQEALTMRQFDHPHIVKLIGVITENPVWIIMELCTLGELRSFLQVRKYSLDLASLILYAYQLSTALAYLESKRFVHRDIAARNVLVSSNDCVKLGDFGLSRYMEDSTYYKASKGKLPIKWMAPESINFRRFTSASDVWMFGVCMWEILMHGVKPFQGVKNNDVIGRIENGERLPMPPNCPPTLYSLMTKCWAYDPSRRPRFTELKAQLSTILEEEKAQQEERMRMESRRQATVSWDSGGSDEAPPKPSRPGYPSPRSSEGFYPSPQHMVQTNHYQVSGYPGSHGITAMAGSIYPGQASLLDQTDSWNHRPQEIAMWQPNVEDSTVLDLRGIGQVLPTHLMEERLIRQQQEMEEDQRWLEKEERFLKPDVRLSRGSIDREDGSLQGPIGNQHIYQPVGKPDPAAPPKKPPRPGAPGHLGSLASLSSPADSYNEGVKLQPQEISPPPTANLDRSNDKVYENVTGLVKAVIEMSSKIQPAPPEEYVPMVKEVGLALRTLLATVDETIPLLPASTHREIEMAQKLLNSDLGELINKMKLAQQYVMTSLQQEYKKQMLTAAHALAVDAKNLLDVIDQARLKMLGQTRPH
# PROTOCOL DETAILS: Biochemical enzyme assay for FAK activity (Caliper LC3000 mobility shift)
# APPLIED CONDITIONS: Table 3; 100 uM ATP; read-out: FAK IC50
# Procedure: 1. Biochemical Enzyme Assays for FAK Activity The FAK assays described here are performed on two Caliper Life Sciences systems, the LC3000 and the EZ Reader II. […] The plate is read on a Caliper LC 3000 in an Off-Chip mobility shift assay format, using the following parameters for a 12-sipper chip: screening pressure—1.9 psi, upstream voltage—3000, downstream voltage—700. […]
pIC50: −log10 of the molar value.
REPORTED ENDPOINT: pIC50

Prompt line: Look up and report measured pIC50 for this entry: CS(=O)(=O)c1cccc(CNc2ccnc(-c3cccnc3N)n2)c1
Response line: 5.00 to 6.00
